- Measured on: κ opioid receptor (Homo sapiens (Human))
- Assay overview: κ-opioid receptor [35S]GTPγS functional assay (HEK)
- Assay type: biochemical
pEC50: −log10 of the molar value.
1 means recorded pEC50 is 6 or above; 0 means it is below 6.

Compound: COc1ccc2c(c1)[C@]13CCN(CC4CC4)[C@H](C2)[C@]1(O)C[C@H]1CC(=O)N[C@H]1C3
Measured on: κ opioid receptor (Homo sapiens (Human))
Class label: 0
--
Compound: O=C1C[C@@H]2C[C@@]3(O)[C@H]4Cc5ccc(O)cc5[C@@]3(CCN4CC3CC3)C[C@@H]2N1
Measured on: κ opioid receptor (Homo sapiens (Human))
Class label: 1
--
Compound: O=C1C[C@@H]2C[C@@]3(O)[C@H]4Cc5ccc(O)cc5[C@@]3(CCN4CCc3ccccc3)C[C@@H]2N1
Measured on: κ opioid receptor (Homo sapiens (Human))
Class label: 0
--
Compound: CCN1C(=O)C[C@@H]2C[C@@]3(O)[C@H]4Cc5ccc(O)cc5[C@@]3(CCN4CC3CC3)C[C@@H]21
Measured on: κ opioid receptor (Homo sapiens (Human))
Class label: 1
--
Compound: COc1ccc2c(c1)[C@]13CCN(C)[C@H](C2)[C@]1(O)C[C@H]1CC(=O)N[C@H]1C3
Measured on: κ opioid receptor (Homo sapiens (Human))
Class label: 0
--
Compound: O=C1C=C2C[C@@]3(O)[C@H]4Cc5ccc(O)cc5[C@@]3(CCN4CC3CC3)CC2N1 (some centres unmarked)
Measured on: κ opioid receptor (Homo sapiens (Human))
Class label: 1
--
Compound: COc1ccc2c(c1)[C@]13CCN(CC4CC4)[C@H](C2)[C@]1(O)CC1=CC(=O)NC1C3 (some centres unmarked)
Measured on: κ opioid receptor (Homo sapiens (Human))
Class label: 0
--
Compound: CN1C(=O)C[C@@H]2C[C@@]3(O)[C@H]4Cc5ccc(O)cc5[C@@]3(CCN4CC3CC3)C[C@@H]21
Measured on: κ opioid receptor (Homo sapiens (Human))
Class label: 1

---

- Measured on: κ opioid receptor (Homo sapiens (Human), UniProt P41145)
- Assay overview: κ-opioid receptor [35S]GTPγS functional assay (HEK)
- Assay type: biochemical
- Protocol conditions: HEK; GTPγS; relative to U69,593

Compound smiles: O=C1C[C@@H]2C[C@@]3(O)[C@H]4Cc5ccc(O)cc5[C@@]3(CCN4CCc3ccccc3)C[C@@H]2N1
Measured on: κ opioid receptor (Homo sapiens (Human), UniProt P41145)
Emax / %: -0.25
--
Compound smiles: COc1ccc2c(c1)[C@]13CCN(CC4CC4)[C@H](C2)[C@]1(O)C[C@H]1CC(=O)N[C@H]1C3
Measured on: κ opioid receptor (Homo sapiens (Human), UniProt P41145)
Emax / %: 77
--
Compound smiles: CN1C(=O)C[C@@H]2C[C@@]3(O)[C@H]4Cc5ccc(O)cc5[C@@]3(CCN4CC3CC3)C[C@@H]21
Measured on: κ opioid receptor (Homo sapiens (Human), UniProt P41145)
Emax / %: 106
--
Compound smiles: COc1ccc2c(c1)[C@]13CCN(C)[C@H](C2)[C@]1(O)C[C@H]1CC(=O)N[C@H]1C3
Measured on: κ opioid receptor (Homo sapiens (Human), UniProt P41145)
Emax / %: 52

---

- Measured on: κ opioid receptor (Homo sapiens (Human), UniProt P41145)
- Assay overview: κ-opioid receptor [35S]GTPγS functional assay (U-2 OS)
- Type: biochemical
- Protocol conditions: U2OS; GTPγS; relative to U69,593

Compound: O=C1C[C@@H]2C[C@@]3(O)[C@H]4Cc5ccc(O)cc5[C@@]3(CCN4CC3CC3)C[C@@H]2N1
Display unit: %
Emax: 112
--
Compound: O=C1C=C2C[C@@]3(O)[C@H]4Cc5ccc(O)cc5[C@@]3(CCN4CC3CC3)CC2N1 (stereo partly shown)
Display unit: %
Emax: 87.5
--
Compound: COc1ccc2c(c1)[C@]13CCN(CC4CC4)[C@H](C2)[C@]1(O)C[C@H]1CC(=O)N[C@H]1C3
Display unit: %
Emax: 99
--
Compound: COc1ccc2c(c1)[C@]13CCN(CC4CC4)[C@H](C2)[C@]1(O)C[C@H]1CC(=O)N(CC(C)C)[C@H]1C3
Display unit: %
Emax: 106
--
Compound: COc1ccc2c(c1)[C@]13CCN(C)[C@H](C2)[C@]1(O)C[C@H]1CC(=O)N[C@H]1C3
Display unit: %
Emax: 108
--
Compound: COc1ccc2c(c1)[C@]13CCN(C)[C@H](C2)[C@]1(O)CC1=CC(=O)N[C@H]1C3
Display unit: %
Emax: 84.7
--
Compound: CCN1C(=O)C[C@@H]2C[C@@]3(O)[C@H]4Cc5ccc(OC)cc5[C@@]3(CCN4CC3CC3)C[C@@H]21
Display unit: %
Emax: 107
